meta.source: patent US9334249B2

- Tested on: HCMV AD169-Bac-Luc2 US2-US6 clone #26 virus
- run_description: HCMV AD169-Bac luciferase assay (MRC-5 cells)
- Format: cell-based, Human Cytomegalovirus
- test_conditions: Human betaherpesvirus 5, AD169, MRC5, 72 h, read-out: EC50 (nM) Example B
I'd be grateful if you could share measured EC50 for these entries.
The response must be a number in nM with no trailing unit.

Prompt line: Give me measured EC50, please, for this molecule: "N#Cc1cccc(CC(=O)Nc2nc3ccc(NC(=O)c4cscn4)cc3s2)c1"
Response line: 74

Prompt line: Give me measured EC50, please, for this molecule: "O=C(Cn1ccc(NC(=O)c2cscn2)cc1=O)Nc1cccc(C(F)(F)F)c1"
Response line: 658

Prompt line: Give me measured EC50, please, for this molecule: "O=C(Cc1ccc(NC(=O)c2cscn2)nc1)Nc1cc(C(F)(F)F)cc(C(F)(F)F)c1"
Response line: 143

Prompt line: Give me measured EC50, please, for this molecule: "O=C(Cc1ccc(NC(=O)c2cscn2)cc1)Nc1cc(C(F)(F)F)cc(C(F)(F)F)c1"
Response line: 110

Prompt line: Give me measured EC50, please, for this molecule: "O=C(Cc1cccc(C(F)(F)F)c1)Nc1ccc2nc(NC(=O)c3cscn3)sc2c1"
Response line: 45

Prompt line: Give me measured EC50, please, for this molecule: CC(C(=O)Nc1nc2ccc(NC(=O)c3cscn3)cc2n1C)c1cccc(Cl)c1 (centres unmarked)
Response line: 1600

Prompt line: Give me measured EC50, please, for this molecule: "O=C(Cc1ccc(NC(=O)c2cscn2)cn1)Nc1cc(C(F)(F)F)cc(C(F)(F)F)c1"
Response line: 51

Prompt line: Give me measured EC50, please, for this molecule: CC(C(=O)Nc1nc2ccc(NC(=O)c3cscn3)cc2[nH]1)c1cccc(Cl)c1 (centres unmarked)
Response line: 69
